Entries annotated with measured change of melting temperature, mutant - wild type (higher = more stable)
B1: Azurin, P00282 (parent)
chain: MLRKLAAVSLLSLLSAPLLAAECSVDIQGNDQMQFNTNAITVDKSCKQFTVNLSHPGNLPKNVMGHNWVLSTAADMQGVVTDGMASGLDKDYLKPDDSRVIAHTKLIGSGEKDSVTFDVSKLKEGEQYMFFCTFPGHSALMKGTLTLK

# Variants of: B1
# measurement-setup: Pseudomonas aeruginosa (strain ATCC 15692 / DSM 22644 / CIP 104116 / JCM 14847 / LMG 12228 / 1C / PRS 101 / PAO1); pH 7; Thermal; Absorbance; Phosphate 10 mM; reversible: No; structure 5AZU; whole UniProt chain shown
quantity: change of melting temperature, mutant - wild type (higher = more stable) (°C)

variant-identifier: D82C K94C
unit-label: °C
meas-value: 0
//
variant-identifier: D43E K148R
unit-label: °C
meas-value: -4
//
variant-identifier: D43E K148R K44R
unit-label: °C
meas-value: -3
//
variant-identifier: K44R
unit-label: °C
meas-value: -2
